Measured pKB values are reported for all entries that follow.
target: Adrenergic receptor alpha-1 (Rattus norvegicus) (UniProt P15823+P23944+P43140); test: Affinity for Alpha-1 adrenergic receptor of rat aorta; type: tissue-based
Property Name: pKB

Cn1c2c(c3ccccc31)C(=O)C(CN1CCC(C(=O)c3ccc(F)cc3)CC1)CC2 (single isomer, unassigned; (+)) = 7.28
Cn1c2c(c3ccccc31)C(=O)C(CN1CCN(c3ccc(F)cc3)CC1)CC2 (stereo not drawn) = 7.8
Cn1c2c(c3ccccc31)C(=O)C(CN1CC=C(c3c[nH]c4ccccc34)CC1)CC2 (stereo not drawn) = 7.58
COc1ccc2[nH]cc(C3=CCN(CC4CCc5c(c6ccccc6n5C)C4=O)CC3)c2c1 (stereo not drawn) = 6.59
Cc1nccn1CC1CCc2c(c3ccccc3n2C)C1=O (stereo not drawn) = 5.29
Cn1c2c(c3ccccc31)C(=O)C(CN1CC=C(c3c[nH]c4ccc(F)cc34)CC1)CC2 (stereo not drawn) = 6.49
Cn1c2c(c3ccccc31)C(=O)C(CN1CCC(c3ccccc3)CC1)CC2 (stereo not drawn) = 7.58
CN(CCn1c(=O)[nH]c2ccccc2c1=O)CC1CCc2c(c3ccccc3n2C)C1=O (stereo not drawn) = 6.45
Cn1c2c(c3ccccc31)C(=O)C(CN1CCCCC1)CC2 (stereo not drawn) = 6.11
Cn1c2c(c3ccccc31)C(=O)C(CN1CCC(C(=O)c3ccc(F)cc3)CC1)CC2 (racemic) = 7.96
Cn1c2c(c3ccccc31)C(=O)C(CN1CCC(C(=O)c3ccc(F)cc3)CC1)CC2 (stereo in doubt; (-)-13) = 8.08
Cn1c2c(c3ccccc31)C(=O)C(CN1CCC(C(=O)c3ccccc3)CC1)CC2 (stereo not drawn) = 7.36
Cn1c2c(c3ccccc31)C(=O)C(CN1CCC(=C(c3ccc(F)cc3)c3ccc(F)cc3)CC1)CC2 (stereo not drawn) = 5.81
